target: FGFR4 (Homo sapiens, UniProt P22455); test: KINOMEscan competition binding; details: read-out: %Inh FGFR4
Sequence (P22455 22-802): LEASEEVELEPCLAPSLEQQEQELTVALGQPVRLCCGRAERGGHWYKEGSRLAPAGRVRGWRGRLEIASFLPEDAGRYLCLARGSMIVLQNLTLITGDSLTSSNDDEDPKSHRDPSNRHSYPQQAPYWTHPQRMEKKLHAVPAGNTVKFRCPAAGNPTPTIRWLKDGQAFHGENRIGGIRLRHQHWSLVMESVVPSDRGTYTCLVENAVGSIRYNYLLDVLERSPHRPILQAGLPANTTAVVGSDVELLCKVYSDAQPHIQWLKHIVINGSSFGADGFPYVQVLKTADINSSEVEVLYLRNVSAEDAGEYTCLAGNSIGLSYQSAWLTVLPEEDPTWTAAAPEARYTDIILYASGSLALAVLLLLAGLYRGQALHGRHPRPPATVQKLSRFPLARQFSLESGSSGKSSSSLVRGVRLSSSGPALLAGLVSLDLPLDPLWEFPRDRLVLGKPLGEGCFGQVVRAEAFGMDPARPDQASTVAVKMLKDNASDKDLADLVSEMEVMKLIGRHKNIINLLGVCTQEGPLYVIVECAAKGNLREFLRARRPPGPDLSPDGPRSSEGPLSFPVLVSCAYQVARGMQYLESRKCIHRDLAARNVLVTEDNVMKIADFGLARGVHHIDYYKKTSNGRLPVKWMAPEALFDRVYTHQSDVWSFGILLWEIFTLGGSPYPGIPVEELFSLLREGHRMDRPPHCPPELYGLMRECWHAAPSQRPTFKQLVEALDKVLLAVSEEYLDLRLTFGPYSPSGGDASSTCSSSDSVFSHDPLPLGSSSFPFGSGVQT
Reported inhibition at 1 µM values are given for each entry in this list.
Your answer should be a plain number; it is taken to be in %.

A selection of reference data follows.
Molecule: CS(=O)(=O)Cc1ccc(Nc2nccc(-c3c(-c4cccc(NC(=O)C5CCCCC5)c4)nn4ncccc34)n2)cc1 [UNC10225159A]
Measurement units: %
inhibition at 1 µM: 6
//
Molecule: Cn1cc(-c2cnc(N)c3c(-c4ccc5c(c4)CCN5C(=O)Cc4ccccc4)csc23)cn1 [UNC10225012A]
Measurement units: %
inhibition at 1 µM: 0

[Q] Bench note: what inhibition at 1 µM did O=c1cc(N2CCOCC2)nc2n(Cc3cccc(Cl)c3Cl)c(C3CC3)nn12 [UNC10225469A] show?
[A] 0

[Q] Bench note: what inhibition at 1 µM did COc1cccc(OC)c1C(=O)Nc1cccc(-c2nn3ccccc3c2-c2ccnc(Nc3cccc(F)c3)n2)c1 [UNC10225310A] show?
[A] 0

[Q] Bench note: what inhibition at 1 µM did Cc1ccc(NC(=O)Nc2cccc(C(F)(F)F)c2)cc1 [UNC10225187A] show?
[A] 0

* * *

target: CDK8 (Homo sapiens); experiment: KINOMEscan competition binding; details: read-out: %Inh CDK8
Sequence (P49336 whole entry): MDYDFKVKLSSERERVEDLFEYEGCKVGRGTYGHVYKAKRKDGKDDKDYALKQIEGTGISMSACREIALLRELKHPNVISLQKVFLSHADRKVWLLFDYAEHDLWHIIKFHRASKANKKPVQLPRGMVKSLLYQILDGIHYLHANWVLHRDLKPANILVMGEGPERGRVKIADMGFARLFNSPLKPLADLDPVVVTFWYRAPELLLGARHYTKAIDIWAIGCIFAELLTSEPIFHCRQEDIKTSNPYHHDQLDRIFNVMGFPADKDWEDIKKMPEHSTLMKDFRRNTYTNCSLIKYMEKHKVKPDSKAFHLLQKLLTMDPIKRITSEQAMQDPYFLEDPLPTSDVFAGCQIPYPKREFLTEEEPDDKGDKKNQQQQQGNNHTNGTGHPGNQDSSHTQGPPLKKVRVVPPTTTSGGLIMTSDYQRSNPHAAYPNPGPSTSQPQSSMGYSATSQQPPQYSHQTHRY
Reported inhibition at 1 µM values are given for each entry in this list.
Your answer should be a plain number; it is taken to be in %.

Compound: COc1cccc(OC)c1C(=O)Nc1cccc(-c2nn3ccccc3c2-c2ccnc(Nc3cccc(F)c3)n2)c1 [UNC10225310A]
Subject of test: CDK8 (Homo sapiens)
inhibition at 1 µM / %: 0

Compound: CS(=O)(=O)Cc1ccc(Nc2nccc(-c3c(-c4cccc(NC(=O)C5CCCCC5)c4)nn4ncccc34)n2)cc1 [UNC10225159A]
Subject of test: CDK8 (Homo sapiens)
inhibition at 1 µM / %: 0

Compound: O=c1cc(N2CCOCC2)nc2n(Cc3cccc(Cl)c3Cl)c(C3CC3)nn12 [UNC10225469A]
Subject of test: CDK8 (Homo sapiens)
inhibition at 1 µM / %: 0

Compound: Cc1ccc(NC(=O)Nc2cccc(C(F)(F)F)c2)cc1 [UNC10225187A]
Subject of test: CDK8 (Homo sapiens)
inhibition at 1 µM / %: 0

[Q] Bench note: what inhibition at 1 µM did Cn1cc(-c2cnc(N)c3c(-c4ccc5c(c4)CCN5C(=O)Cc4ccccc4)csc23)cn1 [UNC10225012A] show?
[A] 19

* * *

target: ALK (Homo sapiens, UniProt Q9UM73); assay: KINOMEscan competition binding; settings: read-out: %Inh ALK
Sequence (Q9UM73 19-1620): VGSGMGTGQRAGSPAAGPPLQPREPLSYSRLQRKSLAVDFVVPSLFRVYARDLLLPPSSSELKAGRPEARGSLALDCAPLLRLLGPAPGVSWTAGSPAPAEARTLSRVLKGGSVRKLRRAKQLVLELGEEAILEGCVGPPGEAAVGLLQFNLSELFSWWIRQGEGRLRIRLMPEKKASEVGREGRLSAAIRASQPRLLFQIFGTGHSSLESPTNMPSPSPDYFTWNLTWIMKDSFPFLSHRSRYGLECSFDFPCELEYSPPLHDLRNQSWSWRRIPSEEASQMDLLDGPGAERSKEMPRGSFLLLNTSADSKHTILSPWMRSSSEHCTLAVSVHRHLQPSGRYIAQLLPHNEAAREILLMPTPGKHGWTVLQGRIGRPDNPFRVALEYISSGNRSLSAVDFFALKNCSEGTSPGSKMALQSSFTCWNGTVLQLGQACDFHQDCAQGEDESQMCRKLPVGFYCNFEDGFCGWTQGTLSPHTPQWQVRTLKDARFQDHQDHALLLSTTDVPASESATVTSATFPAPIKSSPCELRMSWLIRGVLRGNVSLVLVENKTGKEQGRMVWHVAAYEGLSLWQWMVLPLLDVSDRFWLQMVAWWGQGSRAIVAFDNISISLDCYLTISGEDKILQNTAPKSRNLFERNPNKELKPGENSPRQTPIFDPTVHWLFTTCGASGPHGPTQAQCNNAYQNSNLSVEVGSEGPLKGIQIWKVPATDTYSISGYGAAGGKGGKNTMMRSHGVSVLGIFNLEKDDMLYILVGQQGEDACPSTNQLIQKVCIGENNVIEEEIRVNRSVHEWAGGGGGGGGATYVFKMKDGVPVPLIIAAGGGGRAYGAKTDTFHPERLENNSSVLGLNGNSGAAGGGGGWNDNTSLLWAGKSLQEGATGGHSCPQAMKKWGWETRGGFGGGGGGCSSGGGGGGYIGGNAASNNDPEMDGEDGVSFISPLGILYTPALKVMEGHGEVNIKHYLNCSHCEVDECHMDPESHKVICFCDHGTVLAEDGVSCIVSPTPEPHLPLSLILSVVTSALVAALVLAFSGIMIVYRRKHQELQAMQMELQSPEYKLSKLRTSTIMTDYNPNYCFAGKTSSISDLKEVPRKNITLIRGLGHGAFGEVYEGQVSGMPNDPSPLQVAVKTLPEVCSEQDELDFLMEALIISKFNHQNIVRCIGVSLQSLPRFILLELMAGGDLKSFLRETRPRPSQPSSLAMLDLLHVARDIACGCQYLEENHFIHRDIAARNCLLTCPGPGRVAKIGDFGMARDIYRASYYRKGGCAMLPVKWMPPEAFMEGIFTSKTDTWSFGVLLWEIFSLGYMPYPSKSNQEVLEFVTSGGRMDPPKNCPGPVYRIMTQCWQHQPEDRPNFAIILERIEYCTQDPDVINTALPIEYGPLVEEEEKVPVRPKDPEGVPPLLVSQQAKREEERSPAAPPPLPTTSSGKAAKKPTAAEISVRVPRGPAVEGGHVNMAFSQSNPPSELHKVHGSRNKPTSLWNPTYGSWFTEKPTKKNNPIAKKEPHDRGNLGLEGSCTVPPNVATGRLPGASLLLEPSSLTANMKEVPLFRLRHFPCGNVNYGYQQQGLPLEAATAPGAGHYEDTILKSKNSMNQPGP
Reported inhibition at 1 µM values are given for each entry in this list.
Your answer should be a plain number; it is taken to be in %.

A selection of reference data follows.
Compound: CS(=O)(=O)Cc1ccc(Nc2nccc(-c3c(-c4cccc(NC(=O)C5CCCCC5)c4)nn4ncccc34)n2)cc1 [UNC10225159A]
inhibition at 1 µM, %: 29
--
Compound: O=c1cc(N2CCOCC2)nc2n(Cc3cccc(Cl)c3Cl)c(C3CC3)nn12 [UNC10225469A]
inhibition at 1 µM, %: 0
--
Compound: COc1cccc(OC)c1C(=O)Nc1cccc(-c2nn3ccccc3c2-c2ccnc(Nc3cccc(F)c3)n2)c1 [UNC10225310A]
inhibition at 1 µM, %: 0
--
Compound: Cn1cc(-c2cnc(N)c3c(-c4ccc5c(c4)CCN5C(=O)Cc4ccccc4)csc23)cn1 [UNC10225012A]
inhibition at 1 µM, %: 0

Turning now to a further compound:
[Q] Bench note: what inhibition at 1 µM did Cc1ccc(NC(=O)Nc2cccc(C(F)(F)F)c2)cc1 [UNC10225187A] show?
[A] 0
